biological target: C5a Receptor (Homo sapiens); construct: 2.5-25 ug/mL of purified PMNL membrane fragments; endogenous in cells; assay: Anaphylatoxin Receptor Binding Ki Determination (inhibition of 125I-C5a binding to PMNL membrane fragments); conditions: 0.03-1 nM 125I-C5a; 2.5-25 ug/mL purified PMNL membrane fragments; filtration; read-out: In vitro C5a Receptor Binding Potency Ki
Sequence (P21730 whole entry, the tested form may be a part): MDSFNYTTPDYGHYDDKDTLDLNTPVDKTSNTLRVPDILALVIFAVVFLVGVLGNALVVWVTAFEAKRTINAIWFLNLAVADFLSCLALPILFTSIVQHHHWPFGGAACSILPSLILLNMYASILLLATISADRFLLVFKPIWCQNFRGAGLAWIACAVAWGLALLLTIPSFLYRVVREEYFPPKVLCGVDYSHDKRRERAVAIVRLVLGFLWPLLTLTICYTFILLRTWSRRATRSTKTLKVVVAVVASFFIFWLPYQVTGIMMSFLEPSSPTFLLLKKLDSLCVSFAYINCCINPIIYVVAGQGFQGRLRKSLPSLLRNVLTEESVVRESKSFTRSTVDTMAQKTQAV
Numbered stars: 1 amine (or outer) side, 2 acyl side, 3 side chain; on linkers, the order of the positions; unused ones are H or OH. Square brackets hold non-standard residues; d marks the D form. Peptide text beside a SMILES is read from it. * marks the point of attachment. X1 = N=C(N)NCCC[C@@H](NC[C@H](Cc1ccccc1)N*)C(=O)O; X4 = NCCCC[C@@H](CN1CCC[C@H]1C(=O)[*:2])N[*:1]; X3 = CN(C(CCCc1ccccc1)C(=O)[*:2])[*:1]; d(β3hF) = N[C@@H](CC(=O)O)Cc1ccccc1; NMeCha = CN[C@@H](CC1CCCCC1)C(=O)O; NMeF = CN[C@@H](Cc1ccccc1)C(=O)O; Cha = N[C@@H](CC1CCCCC1)C(=O)O; dCha = N[C@H](CC1CCCCC1)C(=O)O; NMeA = CN[C@@H](C)C(=O)O; Ahx = NCCCCCC(=O)O
Measured Parameter: Ki (µM)

| Compound | Unit Symbol | Data Value |
| --- | --- | --- |
| CN[C@@H](Cc1ccccc1)C(=O)N[C@@H](CCCCN)CN1CCC[C@H]1C(=O)N[C@H](CC1CCCCC1)C(=O)N[C@@H](CC1CCCCC1)C(=O)N[C@H](CCCNC(=N)N)C(=O)O [Example 79] (H-[NMeF][X4][dCha][Cha][dR]-OH) | µM | 14.5 |
| CN[C@@H](Cc1ccccc1)C(=O)N[C@@H](CCCCN)C(=O)N(C)[C@@H](C)C(=O)N[C@H](CC1CCCCC1)C(=O)N[C@@H](CC1CCCCC1)C(=O)N[C@H](CCCNC(=N)N)C(=O)O [Example 34] (H-[NMeF]K[NMeA][dCha][Cha][dR]-OH) | µM | 0.034 |
| CC(C)C[C@H](NC(=O)[C@H](CC1CCCCC1)NC(=O)[C@H](C)N(C)C(=O)[C@H](CCCCN)NC(=O)[C@@H](N)Cc1ccccc1)C(=O)N[C@H](C)C(=O)N[C@@H](CCCNC(=N)N)C(=O)O [Example 17] (H-FK[NMeA][Cha]L[dA]R-OH) | µM | 2.5 |
| CN[C@@H](Cc1ccccc1)C(=O)N[C@@H](CCCCN)C(=O)N1CCC[C@H]1C(=O)N[C@H](CC1CCCCC1)C(=O)N[C@@H](Cc1ccccc1)C(=O)N[C@@H](CC(=O)O)Cc1ccccc1 [Example 170] (H-[NMeF]KP[dCha]F[d(β3hF)]-OH) | µM | 2.6 |
| C[C@H](NC(=O)[C@H](CCCCN)NC(=O)[C@@H](N)Cc1ccccc1)C(=O)N[C@@H](CC1CCCCC1)C(=O)NCCCCCC(=O)N[C@@H](CCCNC(=N)N)C(=O)O [Example 10] (H-FKA[Cha][Ahx]R-OH) | µM | 85 |
| C[C@H](NC(=O)[C@H](CCCCN)NC(=O)[C@@H](N)Cc1ccccc1)C(=O)N[C@H](CC1CCCCC1)C(=O)N(C)[C@@H](CC1CCCCC1)C(=O)N[C@H](CCCNC(=N)N)C(=O)O [Example 40] (H-FKA[dCha][NMeCha][dR]-OH) | µM | 0.59 |
| CN[C@@H](Cc1ccccc1)C(=O)N[C@@H](CCCCN)C(=O)N(C)C(CCCc1ccccc1)C(=O)N[C@H](CC1CCCCC1)C(=O)N[C@@H](Cc1ccccc1)C(=O)N[C@H](CCCNC(=N)N)C(=O)O (some centres unmarked) [Example 156] (H-[NMeF]K[X3][dCha]F[dR]-OH) | µM | 0.66 |
| CN[C@@H](Cc1ccccc1)C(=O)N[C@@H](CCCCN)C(=O)N1CCC[C@H]1C(=O)N[C@H](CC1CCCCC1)C(=O)N[C@H](CN[C@H](CCCNC(=N)N)C(=O)O)Cc1ccccc1 [Example 2] (H-[NMeF]KP[dCha]-X1) | µM | 1 |
